# Experiment Description: Theophylline blood levels as a function of time after oral administration, with and without nicotinic acid (Example 1)
# Experimental Setup: human, in vivo, po, 300 mg
Readout Kind: concentration at 184 min

Cn1c(=O)c2[nH]cnc2n(C)c1=O [Theophylline, theophylline] :: 7200 ng/mL

====

# Experiment Description: Theophylline blood levels as a function of time after oral administration, with and without nicotinic acid (Example 1)
# Experimental Setup: human, in vivo, po, 300 mg
Readout Kind: concentration at 121 min (ng/mL)

Cn1c(=O)c2[nH]cnc2n(C)c1=O [Theophylline, theophylline] :: 5300

====

# Experiment Description: Theophylline blood levels as a function of time after oral administration, with and without nicotinic acid (Example 1)
# Experimental Setup: human, in vivo, po, 300 mg
Readout Kind: concentration at 1.55 h (ng/mL)

Cn1c(=O)c2[nH]cnc2n(C)c1=O :: 4400
